# assayNotes: Biodistribution in B16/F1 melanoma-bearing C57 mice
# Format: in vivo
# conditionContext: female, C57, mouse, muscle, iv, 0.037 MBq, total radioactivity, 24 h post-injection; read-out: Muscle uptake
reportedEndpoint: tissue uptake at 24 h (%ID/g)

INSERT INTO assay_data (molecule, units, valuemeasured) VALUES
  ('CCCC[C@H](NC(=O)CN1CCN(CC(=O)O)CCN(CC(=O)O)CCN(CC(=O)O)CC1)C(=O)N[C@H]1CC(=O)NCCCC[C@@H](C(N)=O)NC(=O)[C@H](Cc2c[nH]c3ccccc23)NC(=O)[C@H](CCCNC(=N)N)NC(=O)[C@@H](Cc2ccccc2)NC(=O)[C@H](Cc2c[nH]cn2)NC1=O [^111In-DOTA-Nle-CycMSHhex, metal not drawn]', '%ID/g', 0.03);

* * *

# assayNotes: Biodistribution in B16/F1 melanoma-bearing C57 mice
# Type: in vivo
# conditionContext: female, C57, mouse, kidneys, iv, 0.037 MBq, total radioactivity, 2 h post-injection; read-out: Kidneys uptake
reportedEndpoint: tissue uptake at 2 h (%ID/g)

INSERT INTO results (compound, valuemeasured) VALUES
  ('CCCC[C@H](NC(=O)CN1CCN(CC(=O)O)CCN(CC(=O)O)CCN(CC(=O)O)CC1)C(=O)N[C@H]1CC(=O)NCCCC[C@@H](C(N)=O)NC(=O)[C@H](Cc2c[nH]c3ccccc23)NC(=O)[C@H](CCCNC(=N)N)NC(=O)[C@@H](Cc2ccccc2)NC(=O)[C@H](Cc2c[nH]cn2)NC1=O [^111In-DOTA-Nle-CycMSHhex, metal not drawn]', 9.52);

* * *

# assayNotes: Biodistribution in B16/F1 melanoma-bearing C57 mice
# Assay type: in vivo
# conditionContext: female, C57, mouse, kidneys, iv, 0.037 MBq, total radioactivity, 4 h post-injection; read-out: Kidneys uptake
reportedEndpoint: tissue uptake at 4 h

INSERT INTO results (molecule, reportedendpoint, valuemeasured) VALUES
  ('CCCC[C@H](NC(=O)CN1CCN(CC(=O)O)CCN(CC(=O)O)CCN(CC(=O)O)CC1)C(=O)N[C@H]1CC(=O)NCCCC[C@@H](C(N)=O)NC(=O)[C@H](Cc2c[nH]c3ccccc23)NC(=O)[C@H](CCCNC(=N)N)NC(=O)[C@@H](Cc2ccccc2)NC(=O)[C@H](Cc2c[nH]cn2)NC1=O [^111In-DOTA-Nle-CycMSHhex, metal not drawn]', 'tissue uptake at 4 h', '9.99 %ID/g');

* * *

# assayNotes: Biodistribution in B16/F1 melanoma-bearing C57 mice
# Type: in vivo
# conditionContext: female, C57, mouse, muscle, iv, total radioactivity, 2 h post-injection, L-lysine co-injection; read-out: Muscle uptake
reportedEndpoint: tissue uptake at 2 h

INSERT INTO measurements (compound, valuemeasured) VALUES
  ('CCCC[C@H](NC(=O)CN1CCN(CC(=O)O)CCN(CC(=O)O)CCN(CC(=O)O)CC1)C(=O)N[C@H]1CC(=O)NCCCC[C@@H](C(N)=O)NC(=O)[C@H](Cc2c[nH]c3ccccc23)NC(=O)[C@H](CCCNC(=N)N)NC(=O)[C@@H](Cc2ccccc2)NC(=O)[C@H](Cc2c[nH]cn2)NC1=O [^111In-DOTA-Nle-CycMSHhex, metal not drawn]', '0.1 %ID/g');

* * *

# assayNotes: Biodistribution in B16/F1 melanoma-bearing C57 mice
# Type: in vivo
# conditionContext: female, C57, mouse, kidneys, iv, total radioactivity, 2 h post-injection, L-lysine co-injection; read-out: Kidneys uptake
reportedEndpoint: tissue uptake at 2 h (%ID/g)

INSERT INTO assay_data (compound, valuemeasured) VALUES
  ('CCCC[C@H](NC(=O)CN1CCN(CC(=O)O)CCN(CC(=O)O)CCN(CC(=O)O)CC1)C(=O)N[C@H]1CC(=O)NCCCC[C@@H](C(N)=O)NC(=O)[C@H](Cc2c[nH]c3ccccc23)NC(=O)[C@H](CCCNC(=N)N)NC(=O)[C@@H](Cc2ccccc2)NC(=O)[C@H](Cc2c[nH]cn2)NC1=O [^111In-DOTA-Nle-CycMSHhex, metal not drawn]', 6.66);

* * *

# assayNotes: Biodistribution in B16/F1 melanoma-bearing C57 mice
# Type: in vivo
# conditionContext: female, C57, mouse, blood, iv, total radioactivity, 2 h post-injection, NDP blockade; read-out: Blood uptake
reportedEndpoint: tissue uptake at 2 h (%ID/g)

INSERT INTO results (compound, valuemeasured) VALUES
  ('CCCC[C@H](NC(=O)CN1CCN(CC(=O)O)CCN(CC(=O)O)CCN(CC(=O)O)CC1)C(=O)N[C@H]1CC(=O)NCCCC[C@@H](C(N)=O)NC(=O)[C@H](Cc2c[nH]c3ccccc23)NC(=O)[C@H](CCCNC(=N)N)NC(=O)[C@@H](Cc2ccccc2)NC(=O)[C@H](Cc2c[nH]cn2)NC1=O [^111In-DOTA-Nle-CycMSHhex, metal not drawn]', 0.07);

* * *

# assayNotes: Biodistribution in B16/F1 melanoma-bearing C57 mice
# Format: in vivo
# conditionContext: female, C57, mouse, tumor, iv, total radioactivity, 2 h post-injection, L-lysine co-injection; read-out: Tumor uptake
reportedEndpoint: tissue uptake at 2 h

INSERT INTO assay_data (molecule, reportedendpoint, valuemeasured) VALUES
  ('CCCC[C@H](NC(=O)CN1CCN(CC(=O)O)CCN(CC(=O)O)CCN(CC(=O)O)CC1)C(=O)N[C@H]1CC(=O)NCCCC[C@@H](C(N)=O)NC(=O)[C@H](Cc2c[nH]c3ccccc23)NC(=O)[C@H](CCCNC(=N)N)NC(=O)[C@@H](Cc2ccccc2)NC(=O)[C@H](Cc2c[nH]cn2)NC1=O [^111In-DOTA-Nle-CycMSHhex, metal not drawn]', 'tissue uptake at 2 h', '14.5 %ID/g');

* * *

# assayNotes: Biodistribution in B16/F1 melanoma-bearing C57 mice
# Format: in vivo
# conditionContext: female, C57, mouse, blood, iv, 0.037 MBq, total radioactivity, 0.5 h post-injection; read-out: Blood uptake
# Method: All the animal studies were conducted in compliance with Institutional Animal Care and Use Committee approval. The mice were housed five animals per cage in sterile micro-isolator cages in a temperature- and humidity-controlled room with a 12-h light/12-h dark schedule. […] Groups of 5 mice were sacrificed at 0.5, 2, 4 and 24 h post-injection, and tumors and organs of interest were harvested, weighed and counted. […] The tumor and organs of interest were harvested, weighed and counted. […]
reportedEndpoint: tissue uptake at 0.5 h (%ID/g)

INSERT INTO results (molecule, reportedendpoint, units, valuemeasured) VALUES
  ('CCCC[C@H](NC(=O)CN1CCN(CC(=O)O)CCN(CC(=O)O)CCN(CC(=O)O)CC1)C(=O)N[C@H]1CC(=O)NCCCC[C@@H](C(N)=O)NC(=O)[C@H](Cc2c[nH]c3ccccc23)NC(=O)[C@H](CCCNC(=N)N)NC(=O)[C@@H](Cc2ccccc2)NC(=O)[C@H](Cc2c[nH]cn2)NC1=O [^111In-DOTA-Nle-CycMSHhex, metal not drawn]', 'tissue uptake at 0.5 h', '%ID/g', 3.33);

* * *

# assayNotes: Biodistribution in B16/F1 melanoma-bearing C57 mice
# Type: in vivo
# conditionContext: female, C57, mouse, lung, iv, total radioactivity, 2 h post-injection, L-lysine co-injection; read-out: Lung uptake
reportedEndpoint: tissue uptake at 2 h (%ID/g)

INSERT INTO results (molecule, valuemeasured) VALUES
  ('CCCC[C@H](NC(=O)CN1CCN(CC(=O)O)CCN(CC(=O)O)CCN(CC(=O)O)CC1)C(=O)N[C@H]1CC(=O)NCCCC[C@@H](C(N)=O)NC(=O)[C@H](Cc2c[nH]c3ccccc23)NC(=O)[C@H](CCCNC(=N)N)NC(=O)[C@@H](Cc2ccccc2)NC(=O)[C@H](Cc2c[nH]cn2)NC1=O [^111In-DOTA-Nle-CycMSHhex, metal not drawn]', 0.75);

* * *

# assayNotes: Biodistribution in B16/F1 melanoma-bearing C57 mice
# Format: in vivo
# conditionContext: female, C57, mouse, spleen, iv, total radioactivity, 2 h post-injection, NDP blockade; read-out: Spleen uptake
reportedEndpoint: tissue uptake at 2 h (%ID/g)

INSERT INTO measurements (compound, reportedendpoint, units, valuemeasured) VALUES
  ('CCCC[C@H](NC(=O)CN1CCN(CC(=O)O)CCN(CC(=O)O)CCN(CC(=O)O)CC1)C(=O)N[C@H]1CC(=O)NCCCC[C@@H](C(N)=O)NC(=O)[C@H](Cc2c[nH]c3ccccc23)NC(=O)[C@H](CCCNC(=N)N)NC(=O)[C@@H](Cc2ccccc2)NC(=O)[C@H](Cc2c[nH]cn2)NC1=O [^111In-DOTA-Nle-CycMSHhex, metal not drawn]', 'tissue uptake at 2 h', '%ID/g', 0.44);

* * *

# assayNotes: Biodistribution in B16/F1 melanoma-bearing C57 mice
# Format: in vivo
# conditionContext: female, C57, mouse, blood, iv, 0.037 MBq, total radioactivity, 2 h post-injection; read-out: Blood uptake
reportedEndpoint: tissue uptake at 2 h (%ID/g)

INSERT INTO assay_data (compound, reportedendpoint, valuemeasured) VALUES
  ('CCCC[C@H](NC(=O)CN1CCN(CC(=O)O)CCN(CC(=O)O)CCN(CC(=O)O)CC1)C(=O)N[C@H]1CC(=O)NCCCC[C@@H](C(N)=O)NC(=O)[C@H](Cc2c[nH]c3ccccc23)NC(=O)[C@H](CCCNC(=N)N)NC(=O)[C@@H](Cc2ccccc2)NC(=O)[C@H](Cc2c[nH]cn2)NC1=O [^111In-DOTA-Nle-CycMSHhex, metal not drawn]', 'tissue uptake at 2 h', 0.11);
